Reference for the values: the supplement of paper PMC12613149

# METHOD: collision cross section (TIMS, N2 drift gas) of the primary ion; higher = larger gas-phase ion size
# CONDITION_DETAILS: ionization mode: ESI-; ion species: [M-H]-
Kindly supply the reported collision cross section values for the records listed here.

NC(=O)Nc1ccc(Cl)c(Cl)c1 [3,4-Dichlorophenylurea] = 134.15 Å²
NS(=O)(=O)c1cc(C(=O)O)c(NCc2ccco2)cc1Cl [Furosemide] = 172.55 Å²
O=C(c1ccccc1)c1ccc(O)cc1O [2,4-Dihydroxybenzophenone] = 146.26 Å²
CCCCCCCCCCCCS(=O)(=O)O [1-Dodecanesulfonic acid] = 165.42 Å²
CCc1cccc(C)c1NC(=O)CS(=O)(=O)O = 155.17 Å²

Each of the following entries comes with a recorded value; kindly state collision cross section for each.
1. CC(C)(c1ccc(O)cc1)c1ccc(O)cc1 [Bisphenol A]
2. CCCC(C)C1(CC)C(=O)NC(=O)NC1=O (configuration not stated) [Pentobarbital]
3. C[C@H]1C[C@H]2[C@@H]3CCC4=CC(=O)C=C[C@]4(C)[C@@]3(Cl)[C@@H](O)C[C@]2(C)[C@@]1(O)C(=O)CO [Beclomethasone]
4. O=S(=O)(O)c1ccc2ccccc2c1 [2-Naphthalenesulfonic acid]
5. CCNc1nc(=O)nc(NC(C)(C)C)[nH]1 [Terbuthylazine-2-hydroxy]

1. 161.33 Å²
2. 150.46 Å²
3. 194.28 Å²
4. 142.13 Å²
5. 151.91 Å²

----------
# METHOD: reversed-phase LC retention time (C18, 15 min MeOH gradient); higher = more hydrophobic / later elution
# CONDITION_DETAILS: ionization mode: ESI-; ion species: [M-H]-
Assign class by reversed-phase LC retention time: not lower than 10 min means True; lower than 10 min means False.

For orientation, consider the following solved cases.
COc1cc(C2c3cc4c(cc3C(OC3OC5COC(C)OC5C(O)C3O)C3COC(=O)C23)OCO4)cc(OC)c1O (stereo not drawn) [Etoposide_2] = True
CCC(C)c1cc([N+](=O)[O-])cc([N+](=O)[O-])c1O (stereo not drawn) [Dinoseb] = True

Decide: is the reported value of reversed-phase LC retention time for O=[N+]([O-])c1ccc(O)c([N+](=O)[O-])c1 [2,4-Dinitrophenol] equal to or greater than 10 min?
False

Decide: is the reported value of reversed-phase LC retention time for O=c1[nH]sc2ccccc12 [1,2-Benzisothiazolinone] equal to or greater than 10 min?
True

Decide: is the reported value of reversed-phase LC retention time for CC1(C)O[C@@H]2C[C@H]3[C@@H]4C[C@H](F)C5=CC(=O)C=C[C@]5(C)[C@@]4(F)[C@@H](O)C[C@]3(C)[C@]2(C(=O)CO)O1 [Fluocinolone acetonide] equal to or greater than 10 min?
True

Decide: is the reported value of reversed-phase LC retention time for N#Cc1c(Cl)c(Cl)c(S(=O)(=O)O)c(C(N)=O)c1Cl [2-Amido-3,5,6-trichloro-4-cyanobenzenesulfonic acid] equal to or greater than 10 min?
False

Decide: is the reported value of reversed-phase LC retention time for CC(C)(C)c1cc(-n2nc3ccc(Cl)cc3n2)c(O)c(C(C)(C)C)c1 [UV-327] equal to or greater than 10 min?
True

----------
# METHOD: reversed-phase LC retention time (C18, 15 min MeOH gradient); higher = more hydrophobic / later elution
# CONDITION_DETAILS: ionization mode: ESI+; ion species: [M+H]+
Assign class by reversed-phase LC retention time: not lower than 10 min means satisfied; lower than 10 min means not satisfied.

For orientation, consider the following solved cases.
Cc1cc(=O)oc2cc(N)ccc12 = not satisfied
CCCCCCCCCCCCCC[N+](C)(C)[O-] [N,N-Dimethyltetradecylamine-N-oxide] = satisfied
Nc1ccc(S(=O)(=O)Nc2nccs2)cc1 = not satisfied
Cc1nc(=O)c(-c2ccccc2)n[nH]1 = not satisfied

Read the next record carefully.
Decide: is the reported value of reversed-phase LC retention time for CS(=O)(=O)c1ccc(C(=O)C2C(=O)CCCC2=O)c(Cl)c1 equal to or greater than 10 min?
satisfied

----------
# METHOD: reversed-phase LC retention time (C18, 15 min MeOH gradient); higher = more hydrophobic / later elution
# CONDITION_DETAILS: ionization mode: ESI-; ion species: [M-H]-
Assign class by reversed-phase LC retention time: not lower than 10 min means true (1); lower than 10 min means false (0).

For orientation, consider the following solved cases.
Oc1ccc(Cl)cc1Cc1cc(Cl)ccc1O = true (1)
Cn1c(N)nc2c3cccnc3ccc21 [2-Amino-3-methyl-imidazo[4,5-f]quinoline (IQ)] = false (0)
CCNS(=O)(=O)c1ccccc1C [N-Ethyl-o-toluenesulfonamide] = true (1)

Decide: is the reported value of reversed-phase LC retention time for Cc1cc(C)nc(NS(=O)(=O)c2ccc(N)cc2)n1 equal to or greater than 10 min?
false (0)

Decide: is the reported value of reversed-phase LC retention time for CC(C)CC(C)CC(C)c1ccc(O)cc1 (stereo not drawn) [Nonylphenol_isomers] equal to or greater than 10 min?
true (1)

----------
# METHOD: collision cross section (TIMS, N2 drift gas) of the primary ion; higher = larger gas-phase ion size
# CONDITION_DETAILS: ionization mode: ESI+; ion species: [M+H]+
Kindly supply the reported collision cross section values for the records listed here.
Numbers only, in Å².

The following compounds have reported results that may help.
c1ccc2[nH]c(-c3cscn3)nc2c1 = 138.79
O=C(NC1CCCCC1)NC1CCCCC1 = 160.65
CCCCCCCCCCCC(=O)NCCO = 175.51
CNC(=O)c1cc(Cl)cc(C)c1NC(=O)c1cc(Br)nn1-c1ncccc1Cl = 199.14
CC(=O)C1(O)CCC2C3CCC4=CC(=O)CCC4(C)C3CCC21C (stereo not drawn) [17alpha-Hydroxyprogesterone] = 183.52

Each of the following entries comes with a recorded value; kindly state collision cross section for each.
1. CC(=O)O[C@]1(C(C)=O)CC[C@H]2[C@@H]3C[C@H](C)C4=CC(=O)CC[C@]4(C)[C@H]3CC[C@@]21C [Medroxyprogesteroneacetate]
2. CCN(CC)c1nc(C)cc(OP(=S)(OC)OC)n1
3. CCCOC(=O)NCCCN(C)C
4. Cn1cc(C(=O)Nc2ccccc2-c2cc(F)c(F)c(F)c2)c(C(F)F)n1
5. CCCCCCCCn1sc(Cl)c(Cl)c1=O
6. c1ccc2c(c1)[nH]c1ncccc12
7. CC(=O)[C@H]1CC[C@H]2[C@@H]3CCC4=CC(=O)CC[C@]4(C)[C@H]3CC[C@]12C
8. CNCCC(Oc1ccc(C(F)(F)F)cc1)c1ccccc1 (configuration not stated)

1: 199.59; 2: 167.52; 3: 142.68; 4: 178.14; 5: 166.39; 6: 132.73; 7: 180.93; 8: 177.66

----------
Kindly supply the reported collision cross section values for the records listed here.
# METHOD: collision cross section (TIMS, N2 drift gas) of the primary ion; higher = larger gas-phase ion size
# CONDITION_DETAILS: ionization mode: ESI-; ion species: [M-H]-
One number for each entry, in Å².

CC(C)N1C(=O)c2ccccc2NS1(=O)=O [Bentazone] = 145.72
C#CCOc1ccc(CCNC(=O)C(OCC#C)c2ccc(Cl)cc2)cc1OC (stereo not drawn) [Mandipropamid] = 195.62
CC[C@@H](C(=O)[C@@H](C)[C@@H](O)[C@H](C)[C@@H]1O[C@@H]([C@@H](CC)C(=O)O)CC[C@@H]1C)[C@H]1O[C@]2(C=C[C@@H](O)[C@]3(CC[C@@](C)([C@H]4CC[C@](O)(CC)[C@H](C)O4)O3)O2)[C@H](C)C[C@@H]1C [Salinomycin] = 263.17
O=C(O)C(F)(F)C(F)(F)C(F)(F)C(F)(F)C(F)(F)F [Perfluorohexanoic acid] = 138.14
Oc1ccccc1-c1ccccc1O [2,2'-Dihydroxybiphenyl] = 143.93

Each of the following entries comes with a recorded value; kindly state collision cross section for each.
1. O=C(O)CCCCCCCCCCC(=O)O [Dodecanedioic acid]
2. CCCCCCCCCCCCCCOS(=O)(=O)O [Tetradecylsulfate]
3. Cc1ccccc1N=C(N)Nc1ccccc1C [1,3-Di-o-tolylguanidine]

1: 153.38; 2: 175.12; 3: 158.32

----------
# METHOD: collision cross section (TIMS, N2 drift gas) of the primary ion; higher = larger gas-phase ion size
# CONDITION_DETAILS: ionization mode: ESI+; ion species: [M+H]+
PROPERTY_LABEL: collision cross section (Å²)
Give bare numbers, in Å².

The following molecules have reported results that may help.
Cc1c(Cl)cccc1Nc1ccccc1C(=O)O [Tolfenamic acid] = 156.85
O=C(c1ccc(OCCN2CCCCC2)cc1)c1c(-c2ccc(O)cc2)sc2cc(O)ccc12 [Raloxifene] = 216.23

Each of the following entries comes with a recorded value; kindly state collision cross section for each.
1. Nc1nc2c(ncn2COCCO)c(=O)[nH]1 [Acyclovir]
2. CCN(CC)CC(=O)Nc1c(C)cccc1C [Lidocaine]

1. 148.26
2. 156.14
